Values of IC50 for Hepatocyte growth factor receptor (Homo sapiens, UniProt P08581), collected from a number of published sources:
Observed Property: IC50 (nM)

- Compound: "Cc1c(C(=O)Nc2ccc(Oc3ccnc(C(=O)N4CCC(N5CCCCC5)CC4)c3)c(F)c2)c(=O)n(-c2ccccc2)n1C"
  Reported Result: 330

[I] COc1cc2c(Oc3ccc(N=Cc4c(C)[nH]n(-c5ccccc5C(F)(F)F)c4=O)cc3F)ccnc2cc1OCCCN1CCCC1
[II] COc1ccc2c(OCc3nnc4ccc(-c5cccs5)nn34)ccnc2c1
Of I and II , which shows the smaller IC50 value? Please identify the chosen entry by its label.
II
(II: 2 nM, I: 5.04 nM)
